Assay: viability profiling in RPMI8226 myeloma cells – cell-based, resazurin fluorescence, basal, 24 h, PK04 Diversity Set, profiling panel (AID 1180);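 further: RPMI8826 multiple myeloma cell line at 5000 cells per well; test concentration not given here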
Details: higher = more signal
Quick rule: z-score of at least -0.03 means Y, below that means N.

>>> assigned_class("CCC[C@@H]1C[C@@]1(CCC)[C@@H](NC(=O)c1ccco1)c1ccc(Cl)cc1")
"N"

For the next question, use this molecule.
Reported z-score at or above -0.03? O=C1NC(=O)C2C1C=CC(C(O)c1ccc(-c3ccccc3)s1)N2Nc1ccccn1 (stereo unspecified)
N

---

Experiment: probe aLAP1 signal on lysate-treated microarray – cell lysate, small-molecule microarray, COS7 lysate, primary screen (AID 1124);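 further: lysate comes from COS7 cells expressing LAP1 and is applied at 0.3 µg/mL; score merges spot fluorescence near 667 nm with signal-to-noise over triplicate slides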
Conditions: probe aLAP1, fluorescence, higher = more signal
Quick rule: composite z-score of at least 0.4 means Satisfied, below that means Not satisfied.

>>> assigned_class("CC(C)C(CO)N1C(=O)[C@@H]2[C@H]3C(=O)OCC=C[C@H]3OC23C=CCN(CCN2CCOCC2)C(=O)[C@@H]13 (some centres not stated)")
"Not satisfied"
>>> assigned_class("COC(=O)[C@@]1(Cc2ccccc2)[C@H]2c3cc(C(=O)N4CCCC4)n(Cc4ccc(OC(F)(F)F)cc4)c3C[C@H]2CN1C(=O)c1ccccc1")
"Satisfied"
>>> assigned_class("C=CCN1C(=O)[C@@]2(O[C@@H](CCO)[C@H]([Si](C)(C)c3ccc(OC)cc3)[C@H]2C)c2cc(NC(=O)[C@H](C)O)ccc21")
"Not satisfied"
>>> assigned_class("COc1ccc([Si](C)(C)[C@H]2[C@H](CC(=O)N3CCC[C@H]3CO)O[C@@]3(C(=O)N(Cc4ccc(N5C(=O)c6cccc7cccc5c67)cc4)c4ccccc43)[C@@H]2C)cc1")
"Not satisfied"
>>> assigned_class("CO[C@H]1O[C@H](CO)[C@@H](OC(=O)Nc2ccc(C(F)(F)F)cc2)[C@H](OC(=O)Nc2ccccc2)[C@H]1OC(=O)Nc1ccccc1")
"Satisfied"

For the next question, use this compound.
Reported composite z-score at or above 0.4? "C=C(/C(=C/C[C@@H](OC(=O)c1ccncc1)c1ccccc1OCCO)c1cnc2ccccc2c1)C(C)C"
Satisfied

---

// values below are reported composite z-score
Test system: Lefty1
Test: Lefty1 protein binding to printed compounds – biochemical, small-molecule microarray, 635/667 nm fluorescence, primary screen (AID 1139)
Settings: fluorescence 635/667, higher = more signal

>>> observed("NC(=O)NCC#Cc1ccc2c(c1)[C@]1(C(=O)N2)[C@H](c2ccc(O)cc2)N2[C@H](c3ccccc3)[C@H](c3ccccc3)OC(=O)[C@H]2[C@@H]1C(N)=O")
-0.295
>>> observed("Cc1ccc(S[C@]2(C(=O)NCCN3CCOCC3)CC(=O)N(C3Cc4ccccc4C3)[C@@H]2c2ccc(CO)cc2)cc1")
-1.47

// switching to the query molecule
Request body: readout composite z-score, system Lefty1, query "C=CCN1C(=O)[C@@]2(O[C@@H](CCO)[C@H]([Si](C)(C)c3ccc(OC)cc3)[C@H]2C)c2cc(NC(=O)[C@H](C)O)ccc21" . Return the value.
0.582

---

Test: small molecules captured by biotinylated probe aFGF10 – biochemical, small-molecule microarray, fluorescence 635/667, stem cell growth factor project, primary screen (AID 1071);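 further: score merges 667 nm spot intensity and signal to noise from triplicate slides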
Settings: higher = more signal
Quick rule: composite z-score of at least 0.4 means T, below that means F.

>>> assigned_class("C=C[C@@H](O)[C@H]1CC(c2ccccc2)=NO1")
"F"
>>> assigned_class("COC(=O)[C@]1(Cc2ccccc2N=[N+]=[N-])N=C(c2ccc(OCCCO)cc2)O[C@@H]1c1ccccc1")
"F"
>>> assigned_class("O=C1NC(=O)C2C1C=CC(C(O)c1ccc(-c3ccccc3)s1)N2Nc1ccccn1 (centres undefined)")
"T"
>>> assigned_class("C=CC[C@]1(C(=O)N(C)C)N=C(c2ccc(OCCCO)cc2)O[C@H]1c1ccccc1")
"T"
>>> assigned_class("N#Cc1ccc(NN2C(C(O)c3ccccc3)C=CC3C(=O)N(c4ccccc4)C(=O)C32)cc1 (centres undefined)")
"F"

Reported composite z-score at or above 0.4? "CC(C)CNC(=O)[C@@]1(C)c2ccccc2C(=O)N(Cc2ccccc2)[C@H]1c1ccc(CO)cc1"
F

Reported composite z-score at or above 0.4? COc1cc(C(O)C2C=CC3C(=O)NC(=O)C3N2Nc2ccc(Cl)cc2Cl)cc(OC)c1OC (centres undefined)
T

Reported composite z-score at or above 0.4? "CCOC(=O)C1=CC[C@@H](c2ccccc2)N(S(=O)(=O)c2ccc(C)cc2)[C@H]1C=C(C)C"
T

Reported composite z-score at or above 0.4? "CC(C)(C)OC(=O)CC[C@]1(C(=O)N2CCCCC2)N=C(c2ccc(OCCCO)cc2)O[C@H]1c1ccccc1CN=[N+]=[N-]"
T

---

Assay: probe aLAP1 signal on lysate-treated microarray – cell lysate, small-molecule microarray, COS7 lysate, primary screen (AID 1124);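 further: lysate comes from COS7 cells expressing LAP1 and is applied at 0.3 µg/mL; score merges spot fluorescence near 667 nm with signal-to-noise over triplicate slides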
Settings: probe aLAP1, fluorescence, higher = more signal
Quick rule: composite z-score of at least 0.1 means label 1, below that means label 0.

>>> assigned_class("CCCC=C(CCC)[C@@H](NS(=O)(=O)c1ccccc1)c1ccc(C(F)(F)F)cc1")
"label 1"
>>> assigned_class("NC(=O)[C@@H]1[C@H]2C(=O)O[C@H](c3ccccc3)[C@H](c3ccccc3)N2[C@H](c2ccccc2OCCO)[C@@]12C(=O)Nc1ccc(C#CCCO)cc12")
"label 1"
>>> assigned_class("COCCOC(=O)N1C(=O)[C@@]2(c3ccccc31)[C@H](c1ccc(OCCO)cc1)N1[C@H](c3ccccc3)[C@H](c3ccccc3)OC(=O)[C@H]1[C@@H]2C(=O)NC[C@H](O)c1ccccc1")
"label 1"
>>> assigned_class("O=[N+]([O-])c1ccc(C[n+]2ccc(-c3ccc(CO)cc3)cc2)o1")
"label 1"

Reported composite z-score at or above 0.1? C=CCC(OC(C)=O)[C@@H]1[C@@H](N(Cc2ccc(-c3cccc(C(F)(F)F)c3)o2)C(=O)c2cccc3ccccc23)c2cc(OCCCO)ccc2N1C(=O)c1ccc(-c2ccccc2)cc1 (stereo partly specified)
label 0

Reported composite z-score at or above 0.1? "CO[C@H]1O[C@H](CO)[C@@H](OC(=O)Nc2cccc(F)c2)[C@H](OC(=O)Nc2ccc3c(c2)OCO3)[C@H]1OC(=O)Nc1ccc2c(c1)OCO2"
label 1

---

Experiment: probe aLefty1 binding on compound microarray – biochemical, small-molecule microarray, 635/667 nm fluorescence, primary screen (AID 1153);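 further: score merges spot fluorescence with signal-to-noise ratio from the scanned slide images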
Settings: higher = more signal
Assay readout: composite z-score

>>> observed("CN(C)CCCNC(=O)[C@@]1(Cc2ccccc2I)c2ccccc2C(=O)N(Cc2ccccc2Cl)[C@H]1c1ccc(CO)cc1")
0.208

Sample "[N-]=[N+]=NCc1ccccc1C[C@]1(C(=O)NCCN2CCOCC2)COC(c2ccc(OCCCO)cc2)=N1" — what was its composite z-score?
0.265

Sample "CO[C@H]1O[C@H](CO)[C@@H](OC(=O)Nc2cccc(F)c2)[C@H](OC(=O)Nc2ccc3c(c2)OCO3)[C@H]1OC(=O)Nc1ccc2c(c1)OCO2" — what was its composite z-score?
0.236

Sample "O=C1O[C@H](c2ccccc2)[C@H](c2ccccc2)N2[C@H]1[C@@H](C(=O)N1CCN(c3ncccn3)CC1)[C@]1(C(=O)Nc3ccc(C#CCCO)cc31)[C@H]2c1ccc(OCCO)cc1" — what was its composite z-score?
0.473

Sample O=C1C2C=CC(C(O)c3cccc4ccccc34)N(Nc3ccccc3)C2C(=O)N1c1ccccc1 (stereo unspecified) — what was its composite z-score?
0.528

Sample "C=CCOC(=O)[C@@H]1[C@H]2C(=O)O[C@H](c3ccccc3)[C@H](c3ccccc3)N2[C@H](c2ccc(OCCOC(=O)[C@@H]3C[C@@H]4C(=O)N5CCC[C@H]5C(=O)N4[C@@H]3c3cccc(OCCO)c3)cc2)[C@@]12C(=O)Nc1ccc(I)cc12" — what was its composite z-score?
-0.462

---

Assay: compounds binding Alexa647 anti-His antibody – biochemical, small-molecule microarray, 635 nm fluorescence, artefact control for SMM control protein annotation, primary screen (AID 1128);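 further: score merges feature fluorescence with signal-to-noise for each printed compound spot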
Settings: higher = more signal
// values below are reported composite z-score
Please respond with just the number, no unit label.

>>> observed("COc1ccc(CCNC(=O)[C@@H]2c3ccccc3C(=O)N(Cc3ccccc3)[C@H]2c2ccc(CO)cc2)cc1")
0.597
>>> observed("NC(=O)NCC#Cc1ccc2c(c1)[C@]1(C(=O)N2)[C@H](c2ccc(OCCO)cc2)N2[C@H](c3ccccc3)[C@H](c3ccccc3)OC(=O)[C@H]2[C@@H]1C(=O)N1CCCCCCC1")
0.418
>>> observed("COC(=O)C(CC#Cc1ccc2c(c1)[C@]1(C(=O)N2)[C@H](c2ccc(O)cc2)N2[C@H](c3ccccc3)[C@H](c3ccccc3)OC(=O)[C@H]2[C@@H]1C(N)=O)C(=O)OC")
-2.69

Sample "O=C(O)[C@@]1(Cc2ccccc2)COC(c2ccc(OCCCO)cc2)=N1" — what was its composite z-score?
-0.951

Sample "CO[C@H]1O[C@H](CO)[C@@H](OC(=O)c2ccc(Br)cc2)[C@@H]2OC(=O)[C@H](Cc3cccc(Br)c3)C/C=C/C[C@@H](Cc3cccc(Br)c3)C(=O)O[C@@H]12" — what was its composite z-score?
1.58
